# Test system: THRa homodimer (NR concentration 90 nM)
# assay_notes: PBM binding z-score (relative to random genomic background probes); higher = stronger binding; sequences stand for … in GC…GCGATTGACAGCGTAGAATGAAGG
Listing of recorded PBM binding z-score by entry.
Please state the value as a number alone, without comment.

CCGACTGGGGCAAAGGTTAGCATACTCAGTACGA = -0.171

Could you now consider this next sequence?
Request: What value of PBM binding z-score has been recorded for this entry: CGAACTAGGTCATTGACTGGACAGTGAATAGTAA
Response: 0.595

----------
# Tested on: RARg homodimer (NR concentration 270 nM)
# assay_notes: PBM binding z-score (relative to random genomic background probes); higher = stronger binding; sequences stand for … in GC…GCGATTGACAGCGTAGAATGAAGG
Values of PBM binding z-score greater than or equal to 3 map to condition met; values below map to condition not met.

Known results for sequences:
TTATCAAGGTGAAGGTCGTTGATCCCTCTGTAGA = condition not met
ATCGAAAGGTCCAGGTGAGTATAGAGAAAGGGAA = condition not met
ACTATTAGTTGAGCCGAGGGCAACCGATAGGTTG = condition not met
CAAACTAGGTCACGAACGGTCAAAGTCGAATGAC = condition met
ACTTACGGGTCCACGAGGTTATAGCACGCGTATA = condition not met
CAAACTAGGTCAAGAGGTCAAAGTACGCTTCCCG = condition met
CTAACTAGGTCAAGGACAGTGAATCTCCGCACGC = condition met
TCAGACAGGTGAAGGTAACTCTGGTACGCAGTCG = condition not met

Request: # bool: PBM binding z-score of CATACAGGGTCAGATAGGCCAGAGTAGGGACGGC >= 3
Response: condition met

Request: One more sequence: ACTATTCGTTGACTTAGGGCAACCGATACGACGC
Response: condition not met

----------
# Tested on: PXR:RXRa (NR concentration 270 nM, RXRa partner concentration 90 nM)
# assay_notes: PBM binding z-score (relative to random genomic background probes); higher = stronger binding; sequences stand for … in GC…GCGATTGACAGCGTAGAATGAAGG
PBM binding z-score values, listed per item

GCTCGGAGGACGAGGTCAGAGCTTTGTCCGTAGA = 2.57
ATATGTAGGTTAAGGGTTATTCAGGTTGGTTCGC = 2.84
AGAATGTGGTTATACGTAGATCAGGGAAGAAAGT = 0.214

Request: Find the recorded PBM binding z-score belonging to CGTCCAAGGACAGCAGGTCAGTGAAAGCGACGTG and report it.
Response: 0.288

Request: What would you report for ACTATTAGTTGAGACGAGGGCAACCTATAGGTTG ?
Response: 1.39

Request: Repeat with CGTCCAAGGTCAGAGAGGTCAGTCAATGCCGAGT
Response: 6.13

Request: Moving on to the next sequence: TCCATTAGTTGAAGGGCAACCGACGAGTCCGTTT
Response: 1.16

Request: Quick one: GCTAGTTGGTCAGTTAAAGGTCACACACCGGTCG
Response: 4.98

Request: Now consider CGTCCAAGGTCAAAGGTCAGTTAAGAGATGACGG .
Response: 6.49

Request: Query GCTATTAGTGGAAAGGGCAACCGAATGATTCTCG next
Response: 0.478

Request: Next up: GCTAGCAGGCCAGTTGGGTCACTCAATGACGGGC
Response: -0.0174

Request: What would you report for CCTAGCGGGCCAGGGTCACTCAAGCATTTCGCTT ?
Response: 2.61

Request: What about this sequence? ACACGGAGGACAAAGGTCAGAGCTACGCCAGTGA
Response: 3.92

----------
# System: LXRb homodimer (NR concentration 270 nM)
# assay_notes: PBM binding z-score (relative to random genomic background probes); higher = stronger binding; sequences stand for … in GC…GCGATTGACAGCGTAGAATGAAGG
quantity_kind: PBM binding z-score

# annotated cases, reported PBM binding z-score shown
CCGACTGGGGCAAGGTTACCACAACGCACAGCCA = -1.11
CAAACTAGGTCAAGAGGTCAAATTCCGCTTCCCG = 2.95
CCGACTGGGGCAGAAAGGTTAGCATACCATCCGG = -1.09

Request: Consider the sequence shown here: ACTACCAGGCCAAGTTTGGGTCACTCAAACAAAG What is its recorded PBM binding z-score?
Response: 0.0374

Request: Also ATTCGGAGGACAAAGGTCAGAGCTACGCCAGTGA ?
Response: 0.763

Request: Same read-out for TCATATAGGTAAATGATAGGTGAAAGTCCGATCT ?
Response: 0.404

Request: Another sequence to look at: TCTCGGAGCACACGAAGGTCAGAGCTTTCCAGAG
Response: -1.73

Request: # iterate: TGATTGAGGTTATAAGATCAGGGAACGTTGCAAA
Response: -0.195

----------
# Test system: PPARg:RXRa IVT, anti-PPARg (NR concentration 270 nM, RXRa partner concentration 90 nM)
# assay_notes: PBM binding z-score (relative to random genomic background probes); higher = stronger binding; sequences stand for … in GC…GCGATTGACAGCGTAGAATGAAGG
quantity_kind: PBM binding z-score
Just the number, please.

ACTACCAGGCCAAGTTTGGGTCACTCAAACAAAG = 2.04
CAAACAAGGTCAAGAGGTCAAAGTCCGCTTCCCG = 6.52
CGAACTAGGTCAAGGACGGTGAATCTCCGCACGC = 7.86
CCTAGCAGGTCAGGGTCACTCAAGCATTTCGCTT = 4
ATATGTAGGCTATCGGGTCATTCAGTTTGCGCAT = 5.5
AATACAGGGTCATCGTATGCCAGAGTACGCACAG = 4.36
TCACATAGGTAAAAGGTGAAAGTCGGTGTGGTAA = 3.19
GCGACTGGGGCAAAACAGGTTACCATAAGGTTGG = 3.17

Alright, here's another sequence for you.
Request: I would be grateful if you could share the reported PBM binding z-score for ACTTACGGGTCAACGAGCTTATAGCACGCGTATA .
Response: 3.31

----------
# Test system: PPARg:RXRa DBDmut IVT, anti-RXR (DBD mutation: RXRa K156A/R161A, NR concentration 270 nM, RXRa partner concentration 90 nM)
# assay_notes: PBM binding z-score (relative to random genomic background probes); higher = stronger binding; sequences stand for … in GC…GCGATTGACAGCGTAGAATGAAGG
Catalogue of sequences with associated PBM binding z-score
// no unit, no text: just the number

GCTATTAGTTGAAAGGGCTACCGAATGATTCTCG = 0.511
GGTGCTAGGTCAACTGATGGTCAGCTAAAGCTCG = 4.51
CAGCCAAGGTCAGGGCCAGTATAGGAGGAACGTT = 1.56
CCAGACAGGTGAGAAGGTCACTCAGCCTCGATTA = 1.76

Request: # query: PBM binding z-score of entry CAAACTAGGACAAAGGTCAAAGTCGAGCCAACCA
Response: 6.48

Request: Follow-up item: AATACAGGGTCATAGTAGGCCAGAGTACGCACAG
Response: 2.62

Request: Can you handle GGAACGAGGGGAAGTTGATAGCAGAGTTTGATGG next?
Response: 1.12

Request: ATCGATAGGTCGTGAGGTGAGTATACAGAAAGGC , same question.
Response: -0.14

Request: Again, but for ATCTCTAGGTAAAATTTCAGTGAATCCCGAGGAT
Response: 1.67

Request: Also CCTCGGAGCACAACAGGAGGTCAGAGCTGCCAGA , if possible.
Response: -0.234

----------
// values below are reported PBM binding z-score
# Tested on: RXRa DBDmut IVT, anti-RXR (DBD mutation: RXRa K156A/R161A, NR concentration 90 nM)
# assay_notes: PBM binding z-score (relative to random genomic background probes); higher = stronger binding; sequences stand for … in GC…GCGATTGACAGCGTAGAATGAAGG
A bare number is all that is needed in reply.

Consider the reported PBM binding z-score for these sequences:
ACTCGGAGGAGAAAGGTCAGAGCTACGCCAGTGA = 0.158
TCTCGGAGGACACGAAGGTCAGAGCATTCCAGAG = 0.583
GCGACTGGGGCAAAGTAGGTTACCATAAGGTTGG = -0.138
CCTAGCTGGCCAATCTGGGTCACTCAAGGCTTGA = -0.0999
CGTCTAAGGTCAATGCTAGGTCAGTGAAAGCATT = 3.82

Request: Kindly state the measured PBM binding z-score obtained for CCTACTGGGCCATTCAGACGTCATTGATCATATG with RXRa DBDmut IVT, anti-RXR (DBD mutation: RXRa K156A/R161A, NR concentration 90 nM).
Response: -0.119

Request: Now the sequence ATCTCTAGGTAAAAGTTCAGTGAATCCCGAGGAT
Response: 0.516

Request: Same read-out for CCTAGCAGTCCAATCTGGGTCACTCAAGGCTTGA ?
Response: 0.516

Request: Same read-out for CGTCAAAGTTCAAGGTGACGTAACAGAAAGCAGC ?
Response: 4.67

Request: Query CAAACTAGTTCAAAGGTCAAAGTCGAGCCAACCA next
Response: 3.58

Request: And then GCGACTGGGGCAGCAGCAGGTTACCATAACTTAA , what is it?
Response: -0.331
